# Test system: Liver microsomes
# EXPERIMENTAL_PROTOCOL: Intrinsic clearance in rat liver microsomes assessed per mg of protein
# Format: ADME, Microsome
QUANTITY_NAME: clearance (µL/min/mg)

Below, each entry is followed by its recorded clearance result.
CC[C@@H](COC)Nc1nc(C)nc2c1c(C)nn2-c1ccc(OC)cc1C :: 105
CCCNCc1cncn1Nc1nc(C)nc2c1c(C)nn2-c1ccc(OC)cc1C :: 85

I: CCC(CC)Nc1nc(C)nc2c1cnn2-c1ccc(OC)cc1C
II: CCC(CC)Nc1nc(C)nc2c1c(C)nn2-c1ccc(OC)cc1C
Sort I and II by clearance descending and give the first. Answer = label.
I
